ASSAY_SYSTEM: polyclonal human IgG
ASSAY_OVERVIEW: Adsorption isotherm of peptoid affinity resins against polyclonal human IgG
TEST_CONDITIONS: affinity constant from hyperbola fit of adsorption isotherm; peptoid conjugated to chromatographic resin; IgG in PBS, 30 minutes; read-out: Kd × 10^−6
*1 amine or outer side, *2 acyl side, *3 side chain or, on linkers, in order; H or OH if unused. Where a SMILES comes first, the peptide text is derived from it. [ ]: non-standard residue; d: D form. ξ: configuration not given here. Gly(N(CH2)2(3-indolyl)) = O=C(O)CNCCc1c[nH]c2ccccc12; NGly(CH2(3-pyridyl)) = O=C(O)CNCc1cccnc1; Cysteamide = C(CS[*:3])N[*:1]; ξCit = NC(=O)NCCCC(N)C(=O)O; NPrGly = CCCNCC(=O)O
ASSAY_ENDPOINT: Kd (µM)
Numeric answer only, unit µM assumed.

- COMPOUND: "CCCN(CC(=O)NCCS)C(=O)CN(CCc1c[nH]c2ccccc12)C(=O)CNC(=O)C(CCCNC(N)=O)NC(=O)CN(CCc1c[nH]c2ccccc12)C(=O)CNCc1cccnc1 (centres unmarked) [Ligand 12-65-1] (H-[NGly(CH2(3-pyridyl))][Gly(N(CH2)2(3-indolyl))][ξCit]G[Gly(N(CH2)2(3-indolyl))][NPrGly]-Cysteamide)"
  UNIT_TAG: "µM"
  Kd: 7.9

Q) Name the recorded Kd for NC(=O)NCCCC(N)C(=O)N(CC(=O)N(CCc1c[nH]c2ccccc12)CC(=O)N(CC(=O)NCCS)Cc1cccnc1)Cc1cccnc1 (centres unmarked) [Ligand 16-84-3] (H-[ξCit][NGly(CH2(3-pyridyl))][Gly(N(CH2)2(3-indolyl))][NGly(CH2(3-pyridyl))]-Cysteamide) .
A) 4.9
